Where do the numbers come from? From patent US20220323406A1.

tested on: ENR+CD organoids (ISC to Paneth cell differentiation); test: Primary screen: basal (non-stimulated) lysozyme secretion LYZ.NS, 2.5-D 384-well ENR+CD organoid differentiation; type: cell-based, mouse; conditions: primary screen, dose 2.00 uM
Where a name gives a salt, the structure may show the parent alone.
measurement_kind: Dose.FC.LYZ.NS (log2 fold change)
Entry rule: numbers only, all in log2 fold change.

{"columns": ["molecule", "tgt", "Dose.FC.LYZ.NS (log2 fold change)"],
 "data": [
  ["CC(C)(C#N)c1cc(Cn2cncn2)cc(C(C)(C)C#N)c1 [Anastrozole]", "ENR+CD organoids (ISC to Paneth cell differentiation)", "−0.003"],
  ["Nc1nc(N)c2nc(-c3cccc(O)c3)c(-c3cccc(O)c3)nc2n1 [TG100-115]", "ENR+CD organoids (ISC to Paneth cell differentiation)", 0.003],
  ["COc1cc2nc(N3CCN(C(=O)C4COc5ccccc5O4)CC3)nc(N)c2cc1OC (stereo not drawn) [Doxazosin Mesylate]", "ENR+CD organoids (ISC to Paneth cell differentiation)", 0.047]
]}

We now examine a further molecule.
# Dose.FC.LYZ.NS lookup, item Oc1ncnc2[nH]ncc12 [Allopurinol]
−0.004

* * *

test system: ENR+CD organoids; experiment: Primary screen: ATP (CellTiter-Glo 3D, CTG) cell number/viability, 2.5-D 384-well ENR+CD organoids; conditions: primary screen, dose 10.00 uM;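 further: compounds given at plating and again on day 3 over a 6-day differentiation from ENR+CV stem-cell-enriched precursors, ATP measured on day 6, plate median as control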
measurement_kind: Dose.FC.CTG (log2 fold change)
Entry rule: numbers only, all in log2 fold change.

# annotated cases, reported Dose.FC.CTG shown
{"columns": ["smi", "uom", "Dose.FC.CTG"],
 "data": [
  ["C[C@H](CS)C(=O)N1CCC[C@H]1C(=O)O", "log2 fold change", 0.107],
  ["C[C@H](NC(=O)Cc1cc(F)cc(F)c1)C(=O)N[C@@H]1C(=O)N(C)c2ccccc2-c2ccccc21", "log2 fold change", "−1.032"]
]}

# Dose.FC.CTG lookup, item "Oc1nc(-c2ccc(C(F)(F)F)cc2)nc2c1CSCC2"
−0.899

# Dose.FC.CTG lookup, item "CCOC(=O)c1ccc(NC2CCCCC2)c(N)c1"
−0.046

# Dose.FC.CTG lookup, item "NC(=O)Nc1sc(-c2ccc(F)cc2)cc1C(N)=O"
−0.531

# Dose.FC.CTG lookup, item "N#C[C@@H]1CCCN1C(=O)CNC12CC3CC(CC(O)(C3)C1)C2"
0.339

* * *

Listed compounds paired with reported Dose.FC.LYZ.S
system: ENR+CD organoids (ISC to Paneth cell differentiation); assay: Primary screen: CCh-stimulated lysozyme secretion LYZ.S, 2.5-D 384-well ENR+CD organoid differentiation; type: cell-based, mouse; conditions: primary screen, dose 0.08 uM
Structures can show the parent of a compound that is named as a salt.
Entry rule: numbers only, all in log2 fold change.

# annotated cases, reported Dose.FC.LYZ.S shown
{"columns": ["compound", "measurement_kind", "readout_value"],
 "data": [
  ["CN(C)CCOc1ccc(/C(=C(/CCCl)c2ccccc2)c2ccccc2)cc1 [Toremifene Citrate]", "Dose.FC.LYZ.S", 0.078],
  ["O=C(N/N=C/c1ccc(O)c(O)c1)c1cc2ccccc2cc1O", "Dose.FC.LYZ.S", 0.078],
  ["COc1ccc(C[C@@H](C)NC[C@H](O)c2ccc(O)c(NC=O)c2)cc1.COc1ccc(C[C@@H](C)NC[C@H](O)c2ccc(O)c(NC=O)c2)cc1.O=C(O)/C=C/C(=O)O [Formoterol Hemifumarate]", "Dose.FC.LYZ.S", 0.206]
]}

# Dose.FC.LYZ.S lookup, item "COc1cc(N2CCC(N3CCN(C)CC3)CC2)ccc1Nc1ncc(Cl)c(Nc2ccccc2P(C)(C)=O)n1"
0.109

# Dose.FC.LYZ.S lookup, item "NC(=O)Nc1sc(-c2ccc(F)cc2)cc1C(N)=O"
0.041

# Dose.FC.LYZ.S lookup, item COc1ccc2cc(-c3nc(-c4ccc([S+](C)[O-])cc4)[nH]c3-c3ccncc3)ccc2c1 (stereo not drawn)
0.018

# Dose.FC.LYZ.S lookup, item CCCCN1CCCCC1C(=O)Nc1c(C)cccc1C (stereo not drawn) [Bupivacaine HCl]
0.082

# Dose.FC.LYZ.S lookup, item "COc1cccc(C=NCCN=Cc2cccc(OC)c2[O-])c1[O-].[Cl-].[Mn+3]"
0.025

# Dose.FC.LYZ.S lookup, item CCOc1ccc(Cc2cc([C@@H]3O[C@H](CO)[C@@H](O)[C@H](O)[C@H]3O)ccc2Cl)cc1 [Dapagliflozin, reference compound]
0.294

# Dose.FC.LYZ.S lookup, item "CCCSc1nc(N[C@@H]2C[C@H]2c2ccc(F)c(F)c2)c2nnn([C@@H]3C[C@H](OCCO)[C@@H](O)[C@H]3O)c2n1"
0.042

# Dose.FC.LYZ.S lookup, item "CCN(CC)C(=O)/C(C#N)=C/c1cc(O)c(O)c([N+](=O)[O-])c1"
0.020

# Dose.FC.LYZ.S lookup, item "COc1ccc(-n2nc(C(N)=O)c3c2C(=O)N(c2ccc(N4CCCCC4=O)cc2)CC3)cc1"
0.081
